The reported numbers originate from PubChem BioAssay (NCATS).

Assay Protocol: qHTS assay for small molecule agonists of the antioxidant response element (ARE) signaling pathway measured by Nrf2-dependant transcriptional activity - cell viability counter screen (AID 720653); note: % is set by controls: 0 for no effect and ±100 for the full control effect
Experimental Context: ARE-bla HepG2 viability, CellTiter-Glo ATP luminescence, 16 h; active compounds read low
Records with an inconclusive call do not appear. The source made the active and inactive calls. Calls come from the whole dose curve; as a rule, active = well fitted cell-killing curve with a large enough effect in the repeat runs; inconclusive = weak or mixed curves; inactive = flat fitted curve, though single readings scatter.
Quantity: max response

input: Which measured max response value corresponds to `CCCC[O][Al]([O]CCCC)[O]CCCC` ?
output: 4.23% (inactive)

input: Try `C=CCOc1nc(OCC=C)nc(OCC=C)n1` next.
output: 1.36% (inactive)

input: Try `CC(C)CCCCCOC(=O)CS` next.
output: -0.966% (inactive)

input: Try `CCCCCCCCCCCCCCC` next.
output: 10.3% (inactive)

input: Try `C[Si](C)(Cl)[Si](C)(C)Cl` next.
output: -9.32% (inactive)

input: Try `CCCN(CCC)c1c([N+](=O)[O-])cc(C(F)(F)F)c(N)c1[N+](=O)[O-]` next.
output: -7.36% (inactive)

input: Try CCC(=O)C1C(=O)CC(C(=O)O)CC1=O (centres undefined) next.
output: 14.2% (inactive)

input: Try CCCCC(CC)COC(=O)/C=C\C(=O)OCC(CC)CCCC (centres undefined) next.
output: -2.59% (inactive)

input: Try CC(C)(C)C1CCC(O)CC1 (centres undefined) next.
output: 2.04% (inactive)

input: Try `NNS(=O)(=O)c1ccc(Oc2ccc(S(=O)(=O)NN)cc2)cc1` next.
output: -13.9% (inactive)

input: Try `Nc1cc(Cl)c(O)c(Cl)c1` next.
output: -17.9% (inactive)

input: Try `c1ccc2c(c1)ccc1c3ccccc3ccc21` next.
output: -24.7% (inactive)

input: Try CCNc1nc(NC(C)CC)nc(OC)n1 (centres undefined) next.
output: 16.1% (inactive)

input: Try `CCCCCCCCCCCCCCCC` next.
output: -4.36% (inactive)

input: Try `C[Si](Cl)(Cl)c1ccccc1` next.
output: -14.9% (inactive)

input: Try `CCO[Si](CCC#N)(OCC)OCC` next.
output: -7.54% (inactive)

input: Try `CCOC(=O)c1ccccc1C` next.
output: 0.0878% (inactive)

input: Try `O=C1CCC(C2CCCCC2)CC1` next.
output: -5.5% (inactive)

input: Try `CCCCCCCOC(=O)c1ccccc1C(=O)OCCCCCCC` next.
output: 6.19% (inactive)

input: Try CC(C)C(=O)OCC(C)(C)C(O)C(C)C (centres undefined) next.
output: -3.28% (inactive)

input: Try `C[Si](Cl)(Cl)[Si](C)(Cl)Cl` next.
output: -3.61% (inactive)

input: Try `CC1(C)C(=O)N(Br)C(=O)N1Br` next.
output: -10.4% (inactive)

input: Try `CC1(C)CC(NCCCCCCNC2CC(C)(C)NC(C)(C)C2)CC(C)(C)N1` next.
output: -7.27% (inactive)

input: Try `CCCCCOC(=O)COc1cc(N2C(=O)C3=C(CCCC3)C2=O)c(F)cc1Cl` next.
output: 8.37% (inactive)

input: Try O=C1NC(=O)C(Cc2ccc(OCCN3COc4ccccc4C3=O)cc2)S1 (centres undefined) next.
output: -6.38% (inactive)

input: Try CCCCC(CC)COP(=O)(O)OCC(CC)CCCC (centres undefined) next.
output: -10.7% (inactive)

input: Try `CC(C)(N=C=O)c1cccc(C(C)(C)N=C=O)c1` next.
output: -5.26% (inactive)

input: Try `CCCCCCCC(=O)Oc1c(Br)cc(C#N)cc1Br` next.
output: 0.905% (inactive)

input: Try `CC/C=C\CCOC(=O)c1ccccc1O` next.
output: 6.72% (inactive)

input: Try `OC1CCCCCCCCCCC1` next.
output: 3.88% (inactive)

input: Try `CC(C)OB(OC(C)C)OC(C)C` next.
output: -7.65% (inactive)

input: Try `CCCCCCCCCCCCCCO` next.
output: 4.22% (inactive)

input: Try CC(=O)OC(C)(C)C1CC=C(C)CC1 (centres undefined) next.
output: -6.08% (inactive)

input: Try `COC(=O)c1cccc(C)c1S(=O)(=O)NC(=O)Nc1nc(OCC(F)(F)F)nc(N(C)C)n1` next.
output: -9.65% (inactive)

input: Try `C[Si]1(C)O[Si](C)(C)O[Si](C)(C)O1` next.
output: -2.26% (inactive)

input: Try `C1CCC2(CCCCO2)OC1` next.
output: 2.39% (inactive)

input: Try `CN(C)CCOCCN(C)C` next.
output: -2.1% (inactive)

input: Try `COC(=O)c1c(Cl)nn(C)c1S(=O)(=O)NC(=O)Nc1nc(OC)cc(OC)n1` next.
output: -2.6% (inactive)

input: Try `O=C(O)c1ccc(C(=O)O)c(C(=O)O)c1` next.
output: -4.75% (inactive)

input: Try `C[C@]12CC[C@@H]3c4ccc(O)cc4CC[C@H]3[C@@H]1CC[C@H]2O` next.
output: -10.8% (inactive)

input: Try `CC(C)C[C@H](NC(=O)OCC1c2ccccc2-c2ccccc21)C(=O)O` next.
output: -7.25% (inactive)

input: Try `O=C(Cl)c1cc(Cl)cc(Cl)c1` next.
output: -8.26% (inactive)

input: Try CN(C)c1nc(=O)n(C2CCC(O)CC2)c(=O)n1C (centres undefined) next.
output: 6.16% (inactive)

input: Try `CC(C)c1ccc(C(C)C)cc1` next.
output: 2.58% (inactive)

input: Try `CCCCCc1ccc(N)cc1` next.
output: 5.18% (inactive)

input: Try `OCCC(F)(F)C(F)(F)C(F)(F)C(F)(F)C(F)(F)C(F)(F)C(F)(F)C(F)(F)F` next.
output: -8.07% (inactive)

input: Try `CCCCCCCC/C=C\CCCCCCCC(=O)OC` next.
output: -4.89% (inactive)

input: Try `O=[N+]([O-])c1ccc2c(c1)Cc1ccccc1-2` next.
output: -13.8% (inactive)

input: Try `Cl[Si](Cl)(c1ccccc1)c1ccccc1` next.
output: -10.9% (inactive)

input: Try `c1cc(-c2ccncc2)ccn1` next.
output: -5.96% (inactive)

input: Try `O=c1oc(=O)c2cc3c(=O)oc(=O)c3cc12` next.
output: -10.8% (inactive)

input: Try `C[C@]12CCC(=O)C=C1CC[C@@H]1[C@@H]2[C@@H](O)C[C@]2(C=O)[C@@H](C(=O)CO)CC[C@@H]12` next.
output: -8.31% (inactive)

input: Try `CC(=O)c1c(C)c([N+](=O)[O-])c(C(C)(C)C)c([N+](=O)[O-])c1C` next.
output: -1.24% (inactive)

input: Try `CC(C)(C)c1ccc(C(=O)O)cc1` next.
output: 14.5% (inactive)

----------
Assay Protocol: qHTS for Inhibitors of Plasmodium falciparum (7G8) proliferation (AID 504316); note: nearly all actives have a fitted effect of over 65% in size
Experimental Context: P. falciparum 7G8 in erythrocytes, SYBR Green DNA, 72 h; series mostly up to 6.7 µM
Inconclusive results are not listed. The source made the active and inactive calls. Calls come from the whole dose curve; as a rule, active = well fitted inhibition curve with a large enough effect; inconclusive = small, poorly fitted or top-dose-only effect; inactive = flat fitted curve, though single readings scatter.
Result category, one only: active, inactive

input: # fetch the recorded call for CCCCC1=CC2=CC(=O)C(C)(OC(=O)CC)C(=O)C2=CN1CCCCO (centres undefined) here
output: inactive

input: Try `CCOC(=O)CN1C(=O)N[C@@H](c2cccc(C(F)(F)F)c2)C(C(=O)OC)=C1C` next.
output: inactive

input: Try COC(=O)N1C(/C=C/c2ccc3c(c2)OCO3)=Cc2ccccc2C1CC(C)=O (centres undefined) next.
output: active

input: Try `C=CCN1c2ccccc2[C@]23C[C@@H](C(=O)OC)N(S(=O)(=O)c4ccc5c(c4)OCCN5C)C2=NC(C(=O)OC)=C(C(=O)OC)[C@H]13` next.
output: active

----------
Target Desc: Cytochrome P450 3A4 (Homo sapiens)
Assay Protocol: qHTS Assay for Inhibitors and Substrates of Cytochrome P450 3A4 (AID 884); note: % is set by controls: 0 for no effect and ±100 for the full control effect; nearly all actives have a fitted effect of over 50% in size
Experimental Context: recombinant CYP3A4, Luciferin-PPXE luminescence; series mostly up to 57.1 µM
Results filed as inconclusive are left out. Activity calls are given as the source filed them. The call rests on the fitted dose curve; in most records, active means well fitted inhibition curve with a large enough effect; inconclusive means small, poorly fitted or top-dose-only effect; inactive means no such curve, though single readings can be large or run the other way.
Assign activity change, negative = inhibition to each entry below.

input: Which measured activity change, negative = inhibition value corresponds to CCOC(=O)OCC1OC(c2ccccc2)C=CC1OC(=O)OCC (stereo unspecified) ?
output: -18.7% [at 11.4 µM] (inactive)

input: Try C=CCC1C=CC(OC(=O)OCC)C(COC(=O)OCC)O1 (stereo unspecified) next.
output: -26.9% [at 11.4 µM] (inactive)

input: Try COC(=O)NC(CC(C)=O)c1ccc(F)cc1 (stereo unspecified) next.
output: -12% [at 11.4 µM] (inactive)

input: Try `CNc1ccccc1C(=O)OCC(=O)c1ccccc1` next.
output: -18.7% [at 11.4 µM] (inactive)

input: Try CC12C=C(/C=C/c3ccc(F)cc3)C(C)(C1)C(c1ccc(F)cc1)CC2=O (stereo unspecified) next.
output: -18.4% [at 11.4 µM] (inactive)

input: Try `O=C(/C=N/O)NCCCCNC(=O)/C=N/O` next.
output: -14.7% [at 11.4 µM] (inactive)
